- measurement.notes: Virus rating for antiviral activity against Herpes simplex virus 1 HF infected in human Hep2 cells assessed as inhibition of virus-induced cytopathic effect taking into account cytotoxicity against human Hep2 cells
Measured virus rating, listed per entry.
Write the number on its own, no unit after it.

# molecule.smiles, outcome.measure, observed.result
measured = [
    ("Nc1ncnc2c1ncn2[C@H]1O[C@H](CO)[C@@H](O)[C@@H]1O", "virus rating", 0.6),
]

# ---- query compound ----
Ask: Tell us which virus rating value is on record for Nc1ncnc2c1nnn2[C@H]1O[C@H](CO)[C@@H](O)[C@@H]1O
Result: 1
